- ASSAYED SYSTEM: Progesterone receptor (Homo sapiens)
- Sequence (P06401 whole entry): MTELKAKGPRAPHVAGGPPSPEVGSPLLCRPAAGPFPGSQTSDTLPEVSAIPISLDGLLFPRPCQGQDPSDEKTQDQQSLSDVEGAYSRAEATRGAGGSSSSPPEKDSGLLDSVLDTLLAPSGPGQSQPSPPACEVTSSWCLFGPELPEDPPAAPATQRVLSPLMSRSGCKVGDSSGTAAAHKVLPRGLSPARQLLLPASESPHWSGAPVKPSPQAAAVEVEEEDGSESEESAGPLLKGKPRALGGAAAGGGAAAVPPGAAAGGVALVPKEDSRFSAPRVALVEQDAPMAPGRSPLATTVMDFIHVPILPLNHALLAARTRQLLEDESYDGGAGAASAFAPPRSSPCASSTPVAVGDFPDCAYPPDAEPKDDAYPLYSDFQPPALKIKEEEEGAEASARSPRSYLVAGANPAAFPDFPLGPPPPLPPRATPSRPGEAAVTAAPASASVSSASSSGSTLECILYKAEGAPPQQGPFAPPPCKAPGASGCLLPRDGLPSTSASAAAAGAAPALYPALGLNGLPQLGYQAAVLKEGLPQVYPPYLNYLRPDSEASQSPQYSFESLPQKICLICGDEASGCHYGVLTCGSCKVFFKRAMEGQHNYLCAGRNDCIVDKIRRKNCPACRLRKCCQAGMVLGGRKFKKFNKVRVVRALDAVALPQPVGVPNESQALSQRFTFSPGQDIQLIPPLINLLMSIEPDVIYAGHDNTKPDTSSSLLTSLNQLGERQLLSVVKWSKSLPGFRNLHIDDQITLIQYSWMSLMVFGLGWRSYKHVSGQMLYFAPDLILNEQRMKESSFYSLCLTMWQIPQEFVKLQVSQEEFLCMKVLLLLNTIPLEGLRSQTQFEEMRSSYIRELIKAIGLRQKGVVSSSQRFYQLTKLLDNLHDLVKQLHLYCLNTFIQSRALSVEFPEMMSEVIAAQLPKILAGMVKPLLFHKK
- ASSAY: Antagonist activity at gal-PR expressed in african green monkey CV1 cells co-expressing MH100 by luciferase reporter gene assay
pIC50: −log10 of the molar value.
ENDPOINT LABEL: pIC50

CC(C)OC(=O)C1=CN(C(=O)c2ccc(F)c(F)c2)CC(C)(C)c2c1[nH]c1ccccc21 [TUROFEXORATE ISOPROPYL] = 5.00

---

- ASSAY: Cmax in CD rat at 3 mg/kg, po
- Assay type: ADME, organism-based
- Design: dose 3 mg/kg, route oral
- APPLIED CONDITIONS: in vivo
ENDPOINT LABEL: Cmax (nM)

CC(C)OC(=O)C1=CN(C(=O)c2ccc(F)c(F)c2)CC(C)(C)c2c1[nH]c1ccccc21 [TUROFEXORATE ISOPROPYL] = 500

---

- ASSAYED SYSTEM: Androgen receptor (Homo sapiens, UniProt P10275)
- Sequence (P10275 whole entry): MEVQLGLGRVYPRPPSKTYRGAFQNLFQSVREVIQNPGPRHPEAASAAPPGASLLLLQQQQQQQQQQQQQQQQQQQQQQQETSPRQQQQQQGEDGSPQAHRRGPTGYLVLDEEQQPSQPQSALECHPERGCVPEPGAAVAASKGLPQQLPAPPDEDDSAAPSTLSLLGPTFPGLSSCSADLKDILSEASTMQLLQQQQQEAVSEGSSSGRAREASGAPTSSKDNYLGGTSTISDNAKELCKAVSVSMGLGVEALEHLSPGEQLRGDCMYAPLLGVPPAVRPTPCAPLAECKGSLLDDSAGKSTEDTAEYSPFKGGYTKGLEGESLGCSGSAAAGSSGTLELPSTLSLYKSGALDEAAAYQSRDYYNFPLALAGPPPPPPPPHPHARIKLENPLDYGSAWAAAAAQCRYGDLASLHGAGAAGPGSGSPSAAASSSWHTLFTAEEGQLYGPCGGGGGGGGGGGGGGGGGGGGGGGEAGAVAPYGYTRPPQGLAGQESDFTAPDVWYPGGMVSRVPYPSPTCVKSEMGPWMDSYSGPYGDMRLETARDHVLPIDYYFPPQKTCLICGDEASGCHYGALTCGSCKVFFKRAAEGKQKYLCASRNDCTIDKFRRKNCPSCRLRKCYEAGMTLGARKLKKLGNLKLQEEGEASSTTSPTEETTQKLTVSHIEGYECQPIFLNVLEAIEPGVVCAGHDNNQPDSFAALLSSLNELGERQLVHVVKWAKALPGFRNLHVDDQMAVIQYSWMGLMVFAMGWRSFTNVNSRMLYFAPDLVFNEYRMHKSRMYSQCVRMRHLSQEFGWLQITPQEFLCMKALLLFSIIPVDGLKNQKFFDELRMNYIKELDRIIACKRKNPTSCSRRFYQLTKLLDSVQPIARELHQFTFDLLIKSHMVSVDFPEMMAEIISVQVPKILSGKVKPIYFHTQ
- ASSAY: Antagonist activity at gal-AR expressed in african green monkey CV1 cells co-expressing MH100 with GRIP1 co-factor by luciferase reporter gene assay
ENDPOINT LABEL: IC50

CC(C)OC(=O)C1=CN(C(=O)c2ccc(F)c(F)c2)CC(C)(C)c2c1[nH]c1ccccc21 [TUROFEXORATE ISOPROPYL] = 10 µM

---

- ASSAY: Cmax in CD rat at 3 mg/kg, iv
- Type: ADME, organism-based
- Design: dose 3 mg/kg, route intravenous
- APPLIED CONDITIONS: in vivo
ENDPOINT LABEL: Cmax (µM)

CC(C)OC(=O)C1=CN(C(=O)c2ccc(F)c(F)c2)CC(C)(C)c2c1[nH]c1ccccc21 [TUROFEXORATE ISOPROPYL] = 30.5

---

- ASSAYED SYSTEM: Glucocorticoid receptor (Homo sapiens)
- Sequence (P04150 whole entry): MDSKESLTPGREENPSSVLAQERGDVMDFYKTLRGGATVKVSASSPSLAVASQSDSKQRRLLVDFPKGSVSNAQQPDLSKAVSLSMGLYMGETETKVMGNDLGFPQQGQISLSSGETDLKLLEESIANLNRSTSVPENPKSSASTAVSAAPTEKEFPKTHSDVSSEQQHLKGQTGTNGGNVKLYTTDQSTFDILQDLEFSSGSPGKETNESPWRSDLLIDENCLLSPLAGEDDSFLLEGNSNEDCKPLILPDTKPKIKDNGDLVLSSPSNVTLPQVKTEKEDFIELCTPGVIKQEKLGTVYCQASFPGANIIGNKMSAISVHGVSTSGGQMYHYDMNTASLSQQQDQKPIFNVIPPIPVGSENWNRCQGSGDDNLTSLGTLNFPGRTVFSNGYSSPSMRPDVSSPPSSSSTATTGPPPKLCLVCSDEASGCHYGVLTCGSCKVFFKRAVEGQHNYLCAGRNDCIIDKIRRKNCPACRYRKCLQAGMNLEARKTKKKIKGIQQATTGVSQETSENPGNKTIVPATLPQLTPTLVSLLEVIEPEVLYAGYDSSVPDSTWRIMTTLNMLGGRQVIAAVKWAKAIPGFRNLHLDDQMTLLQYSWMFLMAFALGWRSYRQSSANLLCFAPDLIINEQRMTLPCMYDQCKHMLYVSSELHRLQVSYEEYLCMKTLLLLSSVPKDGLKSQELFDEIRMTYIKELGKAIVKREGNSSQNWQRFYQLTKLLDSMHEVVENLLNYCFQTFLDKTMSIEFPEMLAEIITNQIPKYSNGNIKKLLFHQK
- ASSAY: Antagonist activity at gal-GR expressed in african green monkey CV1 cells co-expressing MH100 by luciferase reporter gene assay
ENDPOINT LABEL: IC50

CC(C)OC(=O)C1=CN(C(=O)c2ccc(F)c(F)c2)CC(C)(C)c2c1[nH]c1ccccc21 [TUROFEXORATE ISOPROPYL] = 10 µM

---

- ASSAY: Oral bioavailability in CD rat at 3 mg/kg
- Type: ADME, organism-based
- APPLIED CONDITIONS: in vivo
ENDPOINT LABEL: bioavailability (%)

CC(C)OC(=O)C1=CN(C(=O)c2ccc(F)c(F)c2)CC(C)(C)c2c1[nH]c1ccccc21 [TUROFEXORATE ISOPROPYL] = 37.6

---

- ASSAYED SYSTEM: Bile acid receptor (Homo sapiens)
- Sequence (Q96RI1 whole entry): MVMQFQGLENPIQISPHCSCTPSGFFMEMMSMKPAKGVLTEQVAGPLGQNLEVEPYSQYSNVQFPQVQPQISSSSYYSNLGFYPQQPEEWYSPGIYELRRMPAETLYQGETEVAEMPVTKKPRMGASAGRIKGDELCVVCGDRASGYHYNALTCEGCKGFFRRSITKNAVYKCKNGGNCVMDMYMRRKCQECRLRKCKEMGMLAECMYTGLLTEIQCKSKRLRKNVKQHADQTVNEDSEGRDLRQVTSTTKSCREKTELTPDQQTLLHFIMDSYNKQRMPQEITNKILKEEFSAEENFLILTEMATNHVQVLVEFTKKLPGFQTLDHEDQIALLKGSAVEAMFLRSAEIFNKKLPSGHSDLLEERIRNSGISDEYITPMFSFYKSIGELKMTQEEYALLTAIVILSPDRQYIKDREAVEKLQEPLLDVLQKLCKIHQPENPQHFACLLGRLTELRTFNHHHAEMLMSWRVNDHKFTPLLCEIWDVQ
- ASSAY: Agonist activity at human FXR expressed in african green monkey CV1 cells co-expressing ECRE with RXR co-factor by luciferase reporter gene assay
Our labelling divides records by EC50 into ranges: low group = under 30 nM, middle group = from 30 nM up to 500 nM, high group = 500 nM and over

CCOC(=O)C1=CN(C(=O)c2ccc(F)cc2)CC(C)c2c1[nH]c1ccccc21 (configuration not stated) = middle group
CCOC(=O)C1=CN(C(=O)c2ccc(F)cc2)CC(C)(C)c2c1[nH]c1ccccc21 = low group
CCOC(=O)C1=CN(C(=O)c2ccc(OC)cc2)CC(C)(C)c2c1[nH]c1ccccc21 = low group
CCOC(=O)C1=CN(C(=O)c2ccc(OC)cc2)CC(C)c2c1[nH]c1ccccc21 (configuration not stated) = middle group
CCOC(=O)C1=CN(C(=O)c2ccc(Cl)cc2)CC(C)(C)c2c1[nH]c1ccccc21 = low group
CCCCOC(=O)C1=CN(C(=O)c2ccc(F)cc2)CCc2c1[nH]c1ccccc21 = high group
CC(C)OC(=O)C1=CN(C(=O)c2ccc(F)cc2)CC(C)(C)c2c1[nH]c1ccccc21 = low group
CCOC(=O)C1=CN(C(=O)c2ccc(Cl)cc2)CC(C)c2c1[nH]c1ccccc21 (configuration not stated) = middle group
CCOC(=O)C1=CN(C(=O)c2ccc(F)c(F)c2)CC(C)c2c1[nH]c1ccccc21 (configuration not stated) = middle group
CCOC(=O)C1=CN(C(=O)c2ccc(F)cc2)CCc2c1[nH]c1ccccc21 = high group
